# Tested on: T1, EsCas13d, nuclease-dead (Eubacterium siraeum, UniProt B0MS50, R295A;H300A;R849A;H854A)
# T1 sequence: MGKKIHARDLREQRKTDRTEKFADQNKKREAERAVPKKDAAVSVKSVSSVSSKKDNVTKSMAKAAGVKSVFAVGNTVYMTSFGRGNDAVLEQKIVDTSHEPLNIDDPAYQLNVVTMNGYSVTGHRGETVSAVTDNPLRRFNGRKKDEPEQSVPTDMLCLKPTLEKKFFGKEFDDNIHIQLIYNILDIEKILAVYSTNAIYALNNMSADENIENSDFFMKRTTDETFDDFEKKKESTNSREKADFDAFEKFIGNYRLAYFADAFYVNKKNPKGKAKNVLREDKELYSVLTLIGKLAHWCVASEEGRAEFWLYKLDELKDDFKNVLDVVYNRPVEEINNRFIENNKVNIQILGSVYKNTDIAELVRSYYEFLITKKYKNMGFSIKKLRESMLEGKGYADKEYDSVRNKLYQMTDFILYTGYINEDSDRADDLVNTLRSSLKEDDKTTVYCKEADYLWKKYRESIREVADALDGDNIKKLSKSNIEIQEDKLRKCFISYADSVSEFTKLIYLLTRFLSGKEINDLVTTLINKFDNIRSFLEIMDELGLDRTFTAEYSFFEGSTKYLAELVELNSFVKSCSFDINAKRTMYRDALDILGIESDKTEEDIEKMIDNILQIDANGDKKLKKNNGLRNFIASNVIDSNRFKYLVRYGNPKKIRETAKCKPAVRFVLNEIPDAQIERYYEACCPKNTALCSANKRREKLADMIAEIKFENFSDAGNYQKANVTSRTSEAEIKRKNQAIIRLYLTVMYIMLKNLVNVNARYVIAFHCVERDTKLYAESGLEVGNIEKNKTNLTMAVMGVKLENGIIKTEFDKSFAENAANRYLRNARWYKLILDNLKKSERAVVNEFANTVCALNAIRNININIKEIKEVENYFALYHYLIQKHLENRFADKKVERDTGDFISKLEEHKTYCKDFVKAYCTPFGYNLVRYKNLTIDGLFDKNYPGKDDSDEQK
# Experimental protocol: crRNA (strand 1, pre-loaded); Mg2+; 40 mM Tris-HCl pH 7.5, 150 mM NaCl, 6 mM MgCl2, 1 mM DTT, 0.1% Tween-20, 0.2 mg/ml BSA; 25 C; 10 min per concentration, then washed
# Measurement parameters: tags: His6-TwinStrep-SUMO cleaved; N-terminal SNAP kept (SNAP-Surface 488); label: 3' end held by stalled T7 RNA polymerase
pKd reference
Note on pKd: it is the negative log10 of concentration, concentration in mol/L.

* target 1 insG 3' of 9,insG 3' of 7 (mixed) RNA 1: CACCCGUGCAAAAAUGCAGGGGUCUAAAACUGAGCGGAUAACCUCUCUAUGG RNA 2: GGGAAUGGAUCCACAUCUACGAAUUCGUACCAUAGAGAGGUUAGUCGCGCUCACCGAGAUCGGAAGAGCACACGU | 7.97
* target 1 MT 5'PFS CCA 3'PFS AAU (mixed) RNA 1: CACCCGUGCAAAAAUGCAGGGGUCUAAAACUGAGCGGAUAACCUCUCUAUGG RNA 2: GGGAAUGGAUCCACAUCUACGAAUUCCCACCAUAGAGAGGUUAUCCGCUCAAAUAGAUCGGAAGAGCACACGU | 8.14

Challenge: Return reported pKd; argument: target 2 MT 5'PFS CGC 3'PFS AUA (mixed) RNA 1: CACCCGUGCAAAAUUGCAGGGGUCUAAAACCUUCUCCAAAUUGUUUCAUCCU RNA 2: GGGAAUGGAUCCACAUCUACGAAUUCCGCAGGAUGAAACAAUUUGGAGAAGAUAAGAUCGGAAGAGCACACGU
Response given: 8.40

Challenge: Another binder to check: target 1 A16U,G17A (mixed) RNA 1: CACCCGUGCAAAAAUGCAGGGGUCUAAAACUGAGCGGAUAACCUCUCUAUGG RNA 2: GGGAAUGGAUCCACAUCUACGAAUUCGUACCAUAAUGAGGUUAUCCGCUCACCGAGAUCGGAAGAGCACACGU
Response given: 7.36

Challenge: Another binder to check: target 1 del11,del22 (mixed) RNA 1: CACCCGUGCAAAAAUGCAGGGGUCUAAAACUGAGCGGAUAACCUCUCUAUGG RNA 2: GGGAAUGGAUCCACAUCUACGAAUUCGUACAUAGAGAGGUAUCCGCUCACCGAGAUCGGAAGAGCACACGU
Response given: 7.11

Challenge: Another binder to check: target 1 insC 3' of 15,insC 3' of 15 (mixed) RNA 1: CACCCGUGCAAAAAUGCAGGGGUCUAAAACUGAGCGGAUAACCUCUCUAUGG RNA 2: GGGAAUGGAUCCACAUCUACGAAUUCGUACCAUAGAGCCAGGUUAUCCGCUCACCGAGAUCGGAAGAGCACACGU
Response given: 7.58

Challenge: Another binder to check: target 1 insA 3' of 4,insG 3' of 2 (mixed) RNA 1: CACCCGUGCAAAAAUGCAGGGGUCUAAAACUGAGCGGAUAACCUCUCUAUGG RNA 2: GGGAAUGGAUCCACAUCUACGAAUUCGUACCAUAGAGAGGUUAUCCGCAUCGACCGAGAUCGGAAGAGCACACGU
Response given: 8.11
